- Tested on: Hs-746T (Gastric Carcinoma)
- method: combination Emax (second highest fraction inhibited in the dose matrix, 72 h); higher = more inhibition; extreme values may be limits of the assay

{"columns": ["compound", "system-under-test", "combination Emax"],
 "data": [
  ["CC1(C)CCC(CN2CCN(c3ccc(C(=O)NS(=O)(=O)c4ccc(NCC5CCOCC5)c([N+](=O)[O-])c4)c(Oc4cnc5[nH]ccc5c4)c3)CC2)=C(c2ccc(Cl)cc2)C1 [Venetoclax] + CN(C)CCCOc1ccc(-c2ccc3ncc4c(c3c2)n(C2CCOCC2)c(=O)n4C)cn1 [AZD0156] (first compound max 1 µM, 7x7, partner max 1 µM)", "Hs-746T (Gastric Carcinoma)", 0.226],
  ["CC(=O)c1c(C)c2cnc(Nc3ccc(N4CCNCC4)cn3)nc2n(C2CCCC2)c1=O [Palbociclib] + Cn1cnc2c(F)c(Nc3ccc(Br)cc3Cl)c(C(=O)NOCCO)cc21 [Selumetinib] (first compound max 10 µM, 7x7, partner max 10 µM)", "Hs-746T (Gastric Carcinoma)", 0.49],
  ["C[C@@H]1COCCN1c1cc(C2([S@](C)(=N)=O)CC2)nc(-c2ccnc3[nH]ccc23)n1 [AZD6738] + O=C(c1cc(Cc2n[nH]c(=O)c3ccccc23)ccc1F)N1CCN(C(=O)C2CC2)CC1 [Olaparib] (first compound max 10 µM, 7x7, partner max 10 µM)", "Hs-746T (Gastric Carcinoma)", 0.582],
  ["CC1(C)CCC(CN2CCN(c3ccc(C(=O)NS(=O)(=O)c4ccc(NCC5CCOCC5)c([N+](=O)[O-])c4)c(Oc4cnc5[nH]ccc5c4)c3)CC2)=C(c2ccc(Cl)cc2)C1 [Venetoclax] + C[C@@H]1COCCN1C2=NC(=NC(=C2)C3(CC3)[S@](=N)(=O)C)C4=C5C=CNC5=NC=C4 [AZD6738] (first compound max 1 µM, 7x7, partner max 10 µM)", "Hs-746T (Gastric Carcinoma)", 0.508],
  ["COc1nnc2ccc(N3CCC(c4ccc(OCCN5CCN(C)C(=O)[C@H]5C)cc4)CC3)nn12 [AZD5153] + CN(CC[C@H](CSC1=CC=CC=C1)NC2=C(C=C(C=C2)S(=O)(=O)NC(=O)C3=CC=C(C=C3)N4CCC(CC4)[C@H](C5=CC=CC=C5C6=CC=C(C=C6)Cl)O)S(=O)(=O)C(F)(F)F)CCO [AZD4320] (first compound max 1 µM, 7x7, partner max 1 µM)", "Hs-746T (Gastric Carcinoma)", 0.557],
  ["NC1(C(=O)N[C@@H](CCO)c2ccc(Cl)cc2)CCN(c2ncnc3[nH]ccc23)CC1 [Capivasertib] + CC(C)n1c(=O)n(C)c2cnc3cc(F)c(-c4ccc(OCCCN5CCCCC5)nc4)cc3c21 [AZD1390] (first compound max 10 µM, 7x7, partner max 0.3 µM)", "Hs-746T (Gastric Carcinoma)", 0.332]
]}

###

- Test system: HuH-7 (Hepatocellular Carcinoma);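 note: after 72 h of two-drug dosing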
- method: Bliss excess, mean over the matrix (fraction); higher = more synergy
property-measured: Bliss excess

{"columns": ["compound", "property-measured", "assay-result"],
 "data": [
  ["COc1nnc2ccc(N3CCC(c4ccc(OCCN5CCN(C)C(=O)[C@H]5C)cc4)CC3)nn12 [AZD5153] + C=CCn1c(=O)c2cnc(Nc3ccc(N4CCN(C)CC4)cc3)nc2n1-c1cccc(C(C)(C)O)n1 [AZD1775] (first compound max 1 µM, partner max 1 µM)", "Bliss excess", 0.0129],
  ["CN(CCO)CC[C@H](CSc1ccccc1)Nc1ccc(S(=O)(=O)NC(=O)c2ccc(N3CCC([C@@H](O)c4ccccc4-c4ccc(Cl)cc4)CC3)cc2)cc1S(=O)(=O)C(F)(F)F [AZD4320] + CCN(CCO)CCCOc1ccc2c(Nc3cc(CC(=O)Nc4cccc(F)c4)[nH]n3)ncnc2c1 [AZD2811] (first compound max 1 µM, 7x7, partner max 1 µM)", "Bliss excess", -0.0268],
  ["Cc1c2c(nn1C)CSCc1cc(n(C)n1)CSc1cc(c3ccccc3c1)OCCCc1c(C(=O)O)n(C)c3c-2c(Cl)ccc13 [AZD5991] + CN(C)CCCOc1ccc(-c2ccc3ncc4c(c3c2)n(C2CCOCC2)c(=O)n4C)cn1 [AZD0156] (first compound max 1 µM, 7x7, partner max 1 µM)", "Bliss excess", 0.0316],
  ["NC1(C(=O)N[C@@H](CCO)c2ccc(Cl)cc2)CCN(c2ncnc3[nH]ccc23)CC1 [Capivasertib] + CC(=O)c1c(C)c2cnc(Nc3ccc(N4CCNCC4)cn3)nc2n(C2CCCC2)c1=O [Palbociclib] (first compound max 10 µM, 7x7, partner max 10 µM)", "Bliss excess", 0.0124],
  ["Cc1cc2ncnn2cc1Nc1ncc2c(n1)n(C1CCOCC1)c(=O)n2C [AZD7648] + C[C@@H]1COCCN1C2=NC(=NC(=C2)C3(CC3)[S@](=N)(=O)C)C4=C5C=CNC5=NC=C4 [AZD6738] (first compound max 10 µM, 7x7, partner max 10 µM)", "Bliss excess", 0.0151],
  ["CN(C)CCCOc1ccc(-c2ccc3ncc4c(c3c2)n(C2CCOCC2)c(=O)n4C)cn1 [AZD0156] + C[C@@H]1COCCN1C2=NC(=NC(=C2)C3(CC3)[S@](=N)(=O)C)C4=C5C=CNC5=NC=C4 [AZD6738] (first compound max 1 µM, 7x7, partner max 10 µM)", "Bliss excess", 0.0196],
  ["Cn1cnc2c(F)c(Nc3ccc(Br)cc3Cl)c(C(=O)NOCCO)cc21 [Selumetinib] + CCN(CCO)CCCOc1ccc2c(Nc3cc(CC(=O)Nc4cccc(F)c4)[nH]n3)ncnc2c1 [AZD2811] (first compound max 10 µM, 7x7, partner max 1 µM)", "Bliss excess", -0.0164]
]}
